Experiment: Hydrogen peroxide scavenging activity (HPSA)
Assay type: biochemical
Conditions: antioxidant activity, H2O2 scavenging, 10 min at 37 °C, mean ± SD of triplicates
Recorded pIC50 by entry
// field semantics: pIC50 = negative decimal log of concentration (mol/L)

INSERT INTO assay_data (compound, property_name, value_reported) VALUES
  ('COc1ccc(CCNC(=O)C(C)c2ccc(-c3ccccc3)c(F)c2)cc1OC (stereo not drawn)', 'pIC50', 3.70),
  ('O=C1O[C@H]([C@@H](O)CO)C(O)=C1O', 'pIC50', 3.85),
  ('CC(C(=O)O)c1ccc(-c2ccccc2)c(F)c1 (stereo not drawn)', 'pIC50', 2.94),
  ('COc1cccc(CCNC(=O)C(C)c2ccc(-c3ccccc3)c(F)c2)c1 (stereo not drawn)', 'pIC50', 3.70),
  ('CC(C(=O)NCCc1ccccc1)c1ccc(-c2ccccc2)c(F)c1 (stereo not drawn)', 'pIC50', 3.65);

Request: Given the compound CC(C(=O)NCCc1cccc(Cl)c1)c1ccc(-c2ccccc2)c(F)c1 (stereo not drawn) , what is its reported pIC50?
Result: 3.70

Request: Given the compound "O=c1c(O)c(-c2ccc(O)c(O)c2)oc2cc(O)cc(O)c12" , what is its reported pIC50?
Result: 3.64

Request: Given the compound COc1ccc(CCNC(=O)C(C)c2ccc(-c3ccccc3)c(F)c2)cc1 (stereo not drawn) , what is its reported pIC50?
Result: 3.84

Request: Given the compound CC(C)Cc1ccc(C(C)C(=O)O)cc1 (stereo not drawn) [Ibu, ibuprofen, reference compound] , what is its reported pIC50?
Result: 3.21
